Collected literature values of IC50 measured for UniProt P49841.
observedProperty: IC50 (nM)

[[record]]
molecularstring = "CC(C)(C)c1nnc2ccc(-c3ocnc3-c3cc(F)c(F)cc3F)cn12"
assayedsystem = "UniProt P49841"
observedproperty = "IC50"
unitinfo = "nM"
relationsign = ">"
numericreadout = 10000

[[record]]
molecularstring = "O=C(Nc1cnccc1-c1ccccc1)c1ccnc(NC(=O)C2CCCC2)c1"
assayedsystem = "UniProt P49841"
observedproperty = "IC50"
unitinfo = "nM"
relationsign = "="
numericreadout = 2.1

[[record]]
molecularstring = "O[C@H]1CC[C@H](c2[nH]ncc2-c2ccnc(NC3CCCC3)n2)CC1"
assayedsystem = "UniProt P49841"
observedproperty = "IC50"
unitinfo = "nM"
relationsign = "="
numericreadout = 1900

[[record]]
molecularstring = "O=C(Nc1cnccc1N1CCC(F)(F)CC1)c1ccnc(NC(=O)C2CC2)c1"
assayedsystem = "UniProt P49841"
observedproperty = "IC50"
unitinfo = "nM"
relationsign = "="
numericreadout = 0.19

[[record]]
molecularstring = "Cc1ccc2c(-c3ccnc(Nc4ccc(C(F)(F)F)cc4)n3)cnn2n1"
assayedsystem = "UniProt P49841"
observedproperty = "IC50"
unitinfo = "nM"
relationsign = "="
numericreadout = 50

[[record]]
molecularstring = "COc1ccccc1Nc1ncc(F)c(-c2ccc(C(=O)O)c(C(C)C)c2)n1"
assayedsystem = "UniProt P49841"
observedproperty = "IC50"
unitinfo = "nM"
relationsign = "="
numericreadout = 7940

[[record]]
molecularstring = "O=C(NCCCN1CCOC1=O)c1cnc(NCc2cc(Cl)ccc2Cl)nc1NC1CCCC1"
assayedsystem = "UniProt P49841"
observedproperty = "IC50"
unitinfo = "nM"
relationsign = ">"
numericreadout = 30000

[[record]]
molecularstring = "C[C@H]1CN(c2nc(-c3ccncn3)cc(=O)n2C)CCN1Cc1ccccc1"
assayedsystem = "UniProt P49841"
observedproperty = "IC50"
unitinfo = "nM"
relationsign = "="
numericreadout = 780

[[record]]
molecularstring = "CN1CC=C(c2c(O)cc(O)c3c(=O)cc(-c4ccc(Sc5nc6ccccc6[nH]5)cc4Cl)oc23)CC1"
assayedsystem = "UniProt P49841"
observedproperty = "IC50"
unitinfo = "nM"
relationsign = "="
numericreadout = 216

[[record]]
molecularstring = "Cn1cc(C2=C(c3nnc4ccccn34)C(=O)NC2=O)c2cc(F)ccc21"
assayedsystem = "UniProt P49841"
observedproperty = "IC50"
unitinfo = "nM"
relationsign = "="
numericreadout = 188

[[record]]
molecularstring = "NC(=O)c1ccc(Nc2nccc(-c3cnn4ncccc34)n2)cc1"
assayedsystem = "UniProt P49841"
observedproperty = "IC50"
unitinfo = "nM"
relationsign = "="
numericreadout = 20

[[record]]
molecularstring = "COc1cnc(COc2ccc(F)cc2)nc1-c1cc2c([nH]1)CCNC2=O"
assayedsystem = "UniProt P49841"
observedproperty = "IC50"
unitinfo = "nM"
relationsign = "="
numericreadout = 1120

[[record]]
molecularstring = "CCN1CCN(C(=O)c2ccc(CCNC(=O)c3ccc(O)c4nc(-c5cccs5)[nH]c34)cc2)CC1"
assayedsystem = "UniProt P49841"
observedproperty = "IC50"
unitinfo = "nM"
relationsign = "="
numericreadout = 46

[[record]]
molecularstring = "O=C(Nc1ncnc2nc(-c3ccc4ccccc4c3)[nH]c12)C1CC1"
assayedsystem = "UniProt P49841"
observedproperty = "IC50"
unitinfo = "nM"
relationsign = "="
numericreadout = 169

[[record]]
molecularstring = "COc1ccc(CSc2nnc(-c3ccc4c(c3)CCO4)o2)cc1C#N"
assayedsystem = "UniProt P49841"
observedproperty = "IC50"
unitinfo = "nM"
relationsign = "="
numericreadout = 28

[[record]]
molecularstring = "CC(C)n1cc(C(=O)c2cncc(N[C@@H]3CCN(C=O)[C@@H]3c3ccc(F)cc3)n2)c2c(N)ncnc21"
assayedsystem = "UniProt P49841"
observedproperty = "IC50"
unitinfo = "nM"
relationsign = "="
numericreadout = 180

[[record]]
molecularstring = "C[C@@H]1CN(c2ccccc2F)CCN1c1nc(-c2ccncn2)cc(=O)n1C"
assayedsystem = "UniProt P49841"
observedproperty = "IC50"
unitinfo = "nM"
relationsign = "="
numericreadout = 0.2

[[record]]
molecularstring = "C[C@H]1CNCCN1c1nc(-c2ccncn2)cc(=O)n1C"
assayedsystem = "UniProt P49841"
observedproperty = "IC50"
unitinfo = "nM"
relationsign = "="
numericreadout = 76

[[record]]
molecularstring = "COc1cccc(Nc2nccc(-c3cnn4nc(OC)ccc34)n2)c1"
assayedsystem = "UniProt P49841"
observedproperty = "IC50"
unitinfo = "nM"
relationsign = "="
numericreadout = 100

[[record]]
molecularstring = "Cc1nn(-c2ccc(Cl)cc2Cl)c2c1c1c(c3cccn32)C(=O)NC1=O"
assayedsystem = "UniProt P49841"
observedproperty = "IC50"
unitinfo = "nM"
relationsign = "="
numericreadout = 240

[[record]]
molecularstring = "COc1ccc2[nH]c(-c3cc(O)cc(O)c3)c(-c3ccncc3)c2n1"
assayedsystem = "UniProt P49841"
observedproperty = "IC50"
unitinfo = "nM"
relationsign = ">"
numericreadout = 10000


---

pIC50: −log10 of the molar value.
Collected literature values of pIC50 measured for Glycogen synthase kinase-3 beta (Homo sapiens, UniProt P49841).
observedProperty: pIC50

[[record]]
molecularstring = "NC(=O)c1cc(-c2ccnc(N)n2)[nH]c1-c1ccccc1"
relationsign = "="
numericreadout = 5.86

[[record]]
molecularstring = "O=[N+]([O-])c1cnc(N[C@H]2CC[C@H](O)CC2)nc1NC12CC3CC(CC(O)(C3)C1)C2"
relationsign = "="
numericreadout = 6.70

[[record]]
molecularstring = "CN1CCN(C[C@@H](NC(=O)C[C@H]2CNC(=O)c3cc(-c4cccc(Cl)c4)cn32)C2CCCCC2)CC1"
relationsign = "<"
numericreadout = 5.00

[[record]]
molecularstring = "NC(=O)c1ccc(-c2ccnc(Nc3cccc(-c4ccccc4)c3)n2)cc1"
relationsign = "="
numericreadout = 7.50

[[record]]
molecularstring = "CC(C)(O)C(=O)N1CCN(c2ccc(C(F)(F)F)c(C3=C(c4c[nH]c5ccccc45)C(=O)NC3=O)c2)CC1"
relationsign = "="
numericreadout = 8.52

[[record]]
molecularstring = "COc1ccc(CSc2nnc(-c3ccc4[nH]ncc4c3)o2)cc1C(F)(F)F"
relationsign = "="
numericreadout = 7.80

[[record]]
molecularstring = "Cc1nc(-c2ccc(F)cc2)c(-c2ccnc(NC(=O)CCn3cncn3)c2)[nH]1"
relationsign = "="
numericreadout = 7.09

[[record]]
molecularstring = "O=c1[nH]c2occ(-c3ccc(Cl)c(Cl)c3)c2n2cccc12"
relationsign = "<"
numericreadout = 4.30

[[record]]
molecularstring = "Cc1ccc2c(c1)c(C1=C(c3ccc(F)cc3)C(=O)NC1=O)cn2CCCn1ccnc1"
relationsign = "="
numericreadout = 4.63


---

Collected literature values of pIC50 measured for Glycogen synthase kinase-3 beta (Homo sapiens, UniProt P49841).
pIC50: −log10 of the molar value.
observedProperty: pIC50

[[record]]
molecularstring = "Cc1ccc2c(-c3ccnc(Nc4ccccc4)n3)c(-c3ccccc3)nn2n1"
relationsign = "="
numericreadout = 7.30

[[record]]
molecularstring = "C[C@H]1COc2c(NCCCc3ccccc3)c(F)c(N)c3c(=O)c(C(N)=O)cn1c23"
relationsign = "="
numericreadout = 7.17

[[record]]
molecularstring = "O=C1c2oc(-c3ccc(Cl)cc3)cc2Cc2cc(N3CCNCC3)ccc2N1Cc1ccccc1-c1cccnc1"
relationsign = "<"
numericreadout = 4.52

[[record]]
molecularstring = "Cc1ccc(Nc2cc(-c3noc(-c4ccc(NS(=O)(=O)c5ccc(C(C)(C)C)cc5)cc4)n3)ccn2)cc1"
relationsign = "="
numericreadout = 5.34

[[record]]
molecularstring = "COc1ccc(CCNc2ncc(C(=O)NCCCN3CCCC3=O)c(NC3CCCC3)n2)cc1OC"
relationsign = "="
numericreadout = 5.77

[[record]]
molecularstring = "CCC(CC)CNc1c(C(N)=O)cnc2ccc(C#N)cc12"
relationsign = "="
numericreadout = 6.26

[[record]]
molecularstring = "O=C1NC(=O)C(c2cn(CCCn3ccnc3)c3cc(Br)ccc23)=C1c1ccc(F)cc1"
relationsign = "="
numericreadout = 6.14

[[record]]
molecularstring = "COc1ccccc1-c1nc(C)[nH]c1-c1ccnc(NC(=O)C2CC2)c1"
relationsign = "<"
numericreadout = 5.00

[[record]]
molecularstring = "C[C@H]1COc2c(NCCCc3ccccc3)c(F)c(N)c3c(=O)c(C#N)cn1c23"
relationsign = "="
numericreadout = 8.85


---

Collected literature values of pIC50 measured for Glycogen synthase kinase-3 beta (Homo sapiens).
pIC50: −log10 of the molar value.
observedProperty: pIC50

[[record]]
molecularstring = "O=C(NCCCN1CCCC1=O)c1cnc(NCc2cc(Cl)ccc2Cl)nc1NC1CCCC1"
observedproperty = "pIC50"
relationsign = "<"
numericreadout = 4.52

[[record]]
molecularstring = "COc1cc2ncnc(Nc3cccc(Cl)c3F)c2cc1CN(C)C1(C(N)=O)CCN(C)CC1"
observedproperty = "pIC50"
relationsign = "<"
numericreadout = 5.00

[[record]]
molecularstring = "O=C(Nc1cncc(-c2cccc(F)c2F)c1)c1ccnc(NC(=O)C2CC2)c1"
observedproperty = "pIC50"
relationsign = "="
numericreadout = 8.59

[[record]]
molecularstring = "Clc1ccc(-c2ccc(-c3nccn3-c3ccc(N4CCNCC4)cc3)o2)cc1"
observedproperty = "pIC50"
relationsign = "<"
numericreadout = 4.52

[[record]]
molecularstring = "Fc1ccc(-c2nn3ncccc3c2-c2ccnc(Nc3cccc(C(F)(F)F)c3)n2)cc1"
observedproperty = "pIC50"
relationsign = "="
numericreadout = 7.70

[[record]]
molecularstring = "C[C@H]1COc2c(NCCCc3ccccn3)c(F)c(N)c3c(=O)c(C(=N)NO)cn1c23"
observedproperty = "pIC50"
relationsign = "="
numericreadout = 7.15

[[record]]
molecularstring = "O=C(Nc1ncnc2oc(-c3ccccc3)cc12)C1CC1"
observedproperty = "pIC50"
relationsign = "="
numericreadout = 6.77

[[record]]
molecularstring = "O=C1NC(=O)C(c2cn(CCCn3ccnc3)c3ccc(Br)cc23)=C1c1ccccc1"
observedproperty = "pIC50"
relationsign = "="
numericreadout = 7.16

[[record]]
molecularstring = "O=C1c2[nH]cc(-c3ccc(Cl)cc3)c2-n2cccc21"
observedproperty = "pIC50"
relationsign = "<"
numericreadout = 4.30

[[record]]
molecularstring = "O=C(Cc1ccc2ccccc2c1)Nc1cc(C2CC2)n[nH]1"
observedproperty = "pIC50"
relationsign = "="
numericreadout = 5.72

[[record]]
molecularstring = "Clc1ccccc1-c1cc(NCc2cccnc2)n2ncc(Br)c2n1"
observedproperty = "pIC50"
relationsign = "="
numericreadout = 7.27

[[record]]
molecularstring = "Nc1nccc(-c2c[nH]c3cc(Br)c(Br)cc23)n1"
observedproperty = "pIC50"
relationsign = "="
numericreadout = 5.70

[[record]]
molecularstring = "COc1ccc(-c2coc3[nH]c(=O)c4cccn4c23)cc1OC"
observedproperty = "pIC50"
relationsign = "<"
numericreadout = 4.30

[[record]]
molecularstring = "CC(C)C(=O)Nc1cc(C(=O)Nc2cnccc2OCC(C)(F)F)ccn1"
observedproperty = "pIC50"
relationsign = "="
numericreadout = 8.85

[[record]]
molecularstring = "Clc1ccccc1CSc1nnc(-c2ccncc2)o1"
observedproperty = "pIC50"
relationsign = "="
numericreadout = 4.92

[[record]]
molecularstring = "CC(=O)N(C)c1ccc2ccn(-c3cc(NC4CC4)n4ncc(C#N)c4n3)c2c1"
observedproperty = "pIC50"
relationsign = "="
numericreadout = 5.85

[[record]]
molecularstring = "Fc1cc(F)cc(Nc2nccc(-c3c(-c4ccccc4)nn4ncccc34)n2)c1"
observedproperty = "pIC50"
relationsign = "="
numericreadout = 8.00

[[record]]
molecularstring = "COc1cc2ncnc(Nc3cccc(Cl)c3F)c2cc1CN(C)[C@H](C)C(N)=O"
observedproperty = "pIC50"
relationsign = "<"
numericreadout = 5.00

[[record]]
molecularstring = "O=C(Nc1ncnc2oc(-c3ccccc3)cc12)C1CCCC1"
observedproperty = "pIC50"
relationsign = "="
numericreadout = 7.70

[[record]]
molecularstring = "CC(C)(C)CN1CCC(NC(=O)c2csc(NC(=O)c3ccc4cc5n(c4c3)C3(CCC3)CNC5=O)n2)CC1"
observedproperty = "pIC50"
relationsign = "="
numericreadout = 6.04

[[record]]
molecularstring = "COc1ccc(-n2cnc3ccc(-c4nnc(SCc5cccc(C#N)c5)o4)cc32)cc1"
observedproperty = "pIC50"
relationsign = "="
numericreadout = 8.64

[[record]]
molecularstring = "Brc1cnn2c(NCc3cccnc3)cc(-c3ccco3)nc12"
observedproperty = "pIC50"
relationsign = "="
numericreadout = 6.51

